Molecular target: hCMV UL128 + UL130 + UL131A (HEK293T co-transfectant) (hCMV, UniProt P16837 1-171; P16772 1-214)
Sequence (P16837 whole entry, chain 1 of 2): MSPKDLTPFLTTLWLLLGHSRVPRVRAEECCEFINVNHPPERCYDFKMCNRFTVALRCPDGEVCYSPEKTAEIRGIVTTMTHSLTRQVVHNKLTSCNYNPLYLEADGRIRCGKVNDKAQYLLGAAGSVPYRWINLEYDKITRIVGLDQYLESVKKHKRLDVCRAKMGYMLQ
Sequence (P16772 whole entry, chain 2 of 2): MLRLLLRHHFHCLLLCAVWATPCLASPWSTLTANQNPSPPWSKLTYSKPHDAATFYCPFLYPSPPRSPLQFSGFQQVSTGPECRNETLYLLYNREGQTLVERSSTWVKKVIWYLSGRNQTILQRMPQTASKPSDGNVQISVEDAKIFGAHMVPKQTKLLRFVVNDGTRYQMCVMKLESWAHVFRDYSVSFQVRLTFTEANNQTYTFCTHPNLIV
Test: cell-based or functional assay
So I've got a bunch of binders here, and I need their 50% neutralization VR1814, ARPE values.

Query: Could you share which 50% neutralization VR1814, ARPE value was measured for 8C15 (antibody, V domains shown, human IgG; also called 8C15-biotin) VH: QVQLQESGPGLVKPSETLSLTCTVSGGSIRSYYWSWIRQPPGKGLEWIGHIYYSGNTNYSPSLQSRVTISLDTPKNQFSLRLSSVTAADTAVYYCARHDVIVVRGVFDVWGQGTVVTVSS VL: QSALTQPASVSGSPGQSITISCTGTSSDIGTYNLVSWYQQHPGKAPKVLIYDGSKRPSGVSSRFSASKSGNTASLTISGLQAEDETDYYCCSYAGTSDFFVVFGGGTKLTVL ?
Response: < 0.001 µg/mL

Query: Could you share which 50% neutralization VR1814, ARPE value was measured for 2C12 (antibody, V domains shown, human IgG; also called 2C12-biotin) VH: QITLRESGPTLVKPTQTLTLTCTFSGFSLNTNGVGVGWIRQPPGKALEWLALIYWNGNEGYSPSLKSRLTITKDTSKNQVVLTMTNMDPVDTATYYCVHWPQGLTTVTRLAFDIWGQGTMVTVSS VL: QSALTQPRSVSGSPGQSVTISCTGTTSDVGRYNFVSWYQQHPGKAPKLLMYDVSQRPSGVPSRFSGSKSGNTASLTISGLQAEDEAVFYCCSYAGGNFFSYVFGTGTKVTVL ?
Response: < 0.01 µg/mL

Query: Could you share which 50% neutralization VR1814, ARPE value was measured for 9I6 (antibody, V domains shown, human IgG; also called 9I6-biotin; 916) VH: EVQLVQSGAEVKKPGESLKISCRESGDTFPAYWIAWVRQMPGKGLEWMGIIYPIDSETTYSPSFQGQVTISADKSINTAYLQWSSLKASDSAIYYCARGTSTGLREAFHIWGQGTMVTVSS VL: DVVMTQSPLSLAVTLGQPAYISCRSSQSLGYSDGNTYLNWFQQRPGQSPRRLIYEVSNRDSGVPDRFSGSGSGTDFTLKISRVEAEDVGTYYCMQGTHWPPMCSFGQGTKLEIK ?
Response: < 0.001 µg/mL
